// data source = patent US20230049752A1

Target: human Claudin-6 (CLDN6) (human) (UniProt P56747)
Assay: FACS, limiting dilution, ARK2 cells
Entries and their measured FACS signal at 40 nM follow.
Just the number, please.

AB S3 (antibody, V domains shown) VH: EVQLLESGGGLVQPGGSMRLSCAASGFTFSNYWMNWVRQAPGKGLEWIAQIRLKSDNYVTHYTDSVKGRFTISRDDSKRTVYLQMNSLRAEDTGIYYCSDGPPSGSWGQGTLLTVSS VL: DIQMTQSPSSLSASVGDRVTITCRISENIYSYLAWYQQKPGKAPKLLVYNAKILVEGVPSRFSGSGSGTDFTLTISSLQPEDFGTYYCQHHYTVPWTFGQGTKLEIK
24600

Now look at this entry.
Q: Reported FACS signal at 40 nM, binder AB S4 (antibody, V domains shown) VH: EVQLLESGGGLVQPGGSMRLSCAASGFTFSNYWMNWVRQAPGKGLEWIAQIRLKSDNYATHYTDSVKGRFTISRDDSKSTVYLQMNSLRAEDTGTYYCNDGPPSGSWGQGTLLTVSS VL: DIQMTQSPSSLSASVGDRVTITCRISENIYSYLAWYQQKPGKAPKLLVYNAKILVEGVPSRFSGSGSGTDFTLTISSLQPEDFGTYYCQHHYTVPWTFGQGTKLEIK : ____
Result: 6350
